molecular target: Histamine H1 receptor (Homo sapiens); experiment: Antagonist activity at human Histamine H1 receptor expressed in CHO cells assessed as inhibition of histamine-induced calcium flux preincubated for 30 mins followed by histamine addition by Fluo-4-AM dye based FLIPR assay
pKi: −log10 of the molar value.
I would appreciate it if you labelled entries rule met when pKi is 7 or higher, otherwise rule not met.

Say whether O=C(O)/C=C/c1ccc2cccc(N3CCN(CCc4ccc(OCCCN5CCCCCC5)cc4)CC3)c2n1 shows pKi of 7 or more.
rule not met

CCc1cc(N2CCN(CCc3ccc(OCCCN4CCCCCC4)cc3)CC2)c2nc(CCC(=O)O)ccc2c1 ?
rule met

Can you handle O=C(O)c1cnc2c(N3CCN(CCc4ccc(OCCCN5CCCCCC5)cc4)CC3)cccc2c1 next?
rule not met

What do you get for c1cnc2c(N3CCN(CCc4ccc(OCCCN5CCCCCC5)cc4)CC3)cccc2c1 ?
rule met

What about O=C(O)CCc1ccc2cccc(N3CCN(CCc4ccc(OCCCN5CCCCCC5)cc4)CC3)c2n1 ?
rule met

// repeat for CCCCc1cc(N2CCN(CCc3ccc(OCCCN4CCCCCC4)cc3)CC2)c2nc(CCC(=O)O)ccc2c1 and report
rule met

Param item: O=C(O)c1ccc2cccnc2c1N1CCN(CCc2ccc(OCCCN3CCCCCC3)cc2)CC1
rule not met

Entry O=C(O)c1cc(N2CCN(CCc3ccc(OCCCN4CCCCCC4)cc3)CC2)c2ncccc2c1 please
rule not met

###

Exercise: state measured Ki for each of the molecules provided.
target: Alpha-1B adrenergic receptor (Homo sapiens, UniProt P35368); test: Antagonist activity at adrenergic alpha1B receptor (unknown origin) expressed in Rat1 cells assessed as inhibition of phenylephrine-induced Ca2+ flux preincubated for 30 mins followed by phenylephrine addition by Fluo-4-AM-dye based FLIPR assay
Sequence (P35368 whole entry): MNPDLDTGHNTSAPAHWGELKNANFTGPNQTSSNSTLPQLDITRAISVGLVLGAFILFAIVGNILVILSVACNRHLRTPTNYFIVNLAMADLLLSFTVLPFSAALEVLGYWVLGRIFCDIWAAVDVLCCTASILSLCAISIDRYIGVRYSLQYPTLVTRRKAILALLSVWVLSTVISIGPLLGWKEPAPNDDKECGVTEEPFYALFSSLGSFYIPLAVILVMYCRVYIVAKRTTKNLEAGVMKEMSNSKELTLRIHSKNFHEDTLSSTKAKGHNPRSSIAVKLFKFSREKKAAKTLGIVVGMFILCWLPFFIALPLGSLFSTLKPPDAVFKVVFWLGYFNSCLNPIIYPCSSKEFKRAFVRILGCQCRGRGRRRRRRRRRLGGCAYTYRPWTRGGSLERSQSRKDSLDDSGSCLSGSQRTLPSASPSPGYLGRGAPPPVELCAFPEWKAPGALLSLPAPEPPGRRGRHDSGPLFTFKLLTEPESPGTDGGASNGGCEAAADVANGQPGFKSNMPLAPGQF

INSERT INTO assay_data (mol_smiles, assay_target, measurement_name, value_observed) VALUES
  ('CCc1cc(N2CCN(CCc3ccc(OCCCN4CCCCCC4)cc3)CC2)c2nc(CCC(=O)O)ccc2c1', 'Alpha-1B adrenergic receptor (Homo sapiens, UniProt P35368)', 'Ki', '> 2000 nM');

For each of the molecules below, state Ki.
1. c1cnc2c(N3CCN(CCc4ccc(OCCCN5CCCCCC5)cc4)CC3)cccc2c1
2. O=C(O)CCc1ccc2cc(Cc3ccccc3)cc(N3CCN(CCc4ccc(OCCCN5CCCCCC5)cc4)CC3)c2n1
3. O=C(O)c1ccc2cccnc2c1N1CCN(CCc2ccc(OCCCN3CCCCCC3)cc2)CC1

15.8 nM
251 nM
> 2000 nM

Give measured Ki for every item shown.
1. c1cnc2c(N3CCN(CCCc4ccc(OCCCN5CCCCCC5)cc4)CC3)cccc2c1
2. CCCCc1cc(N2CCN(CCc3ccc(OCCCN4CCCCCC4)cc3)CC2)c2nc(CCC(=O)O)ccc2c1
3. O=C(O)/C=C/c1ccc2cccc(N3CCN(CCc4ccc(OCCCN5CCCCCC5)cc4)CC3)c2n1

["100 nM", "398 nM", "79.4 nM"]

Would you mind listing Ki for each of the following molecules?
1. O=C(O)c1cc(N2CCN(CCc3ccc(OCCCN4CCCCCC4)cc3)CC2)c2ncccc2c1
2. O=C(O)CCc1cnc2c(N3CCN(CCc4ccc(OCCCN5CCCCCC5)cc4)CC3)cccc2c1

> 2000 nM
> 2000 nM

###

I'd be grateful if you could share measured Ki for these entries.
target: Alpha-1A adrenergic receptor (Homo sapiens, UniProt P35348); experiment: Antagonist activity at adrenergic alpha1A receptor (unknown origin) expressed in Rat1 cells assessed as inhibition of phenylephrine-induced Ca2+ flux preincubated for 30 mins followed by phenylephrine addition by Fluo-4-AM-dye based FLIPR assay
Sequence (P35348 whole entry): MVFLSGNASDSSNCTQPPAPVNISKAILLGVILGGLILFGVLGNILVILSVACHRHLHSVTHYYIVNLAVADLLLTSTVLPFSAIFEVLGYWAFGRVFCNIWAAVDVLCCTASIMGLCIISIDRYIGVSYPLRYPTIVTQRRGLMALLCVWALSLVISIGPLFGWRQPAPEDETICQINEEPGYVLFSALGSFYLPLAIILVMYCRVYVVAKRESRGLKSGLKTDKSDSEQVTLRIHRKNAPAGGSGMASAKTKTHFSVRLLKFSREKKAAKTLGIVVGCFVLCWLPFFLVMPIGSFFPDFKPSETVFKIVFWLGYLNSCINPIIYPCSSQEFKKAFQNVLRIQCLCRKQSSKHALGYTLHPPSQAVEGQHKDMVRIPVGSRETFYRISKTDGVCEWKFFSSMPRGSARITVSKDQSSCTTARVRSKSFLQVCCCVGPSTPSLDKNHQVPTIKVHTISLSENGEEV
Numbers only, in nM.

INSERT INTO measurements (mol_smiles, measurement_name, value_observed) VALUES
  ('c1cnc2c(N3CCN(CCc4ccc(OCCCN5CCCCCC5)cc4)CC3)cccc2c1', 'Ki', 7.94),
  ('CCc1cc(N2CCN(CCc3ccc(OCCCN4CCCCCC4)cc3)CC2)c2nc(CCC(=O)O)ccc2c1', 'Ki', 251),
  ('c1cnc2c(N3CCN(CCCc4ccc(OCCCN5CCCCCC5)cc4)CC3)cccc2c1', 'Ki', 31.6),
  ('CCCCc1cc(N2CCN(CCc3ccc(OCCCN4CCCCCC4)cc3)CC2)c2nc(CCC(=O)O)ccc2c1', 'Ki', 316),
  ('O=C(O)/C=C/c1ccc2cccc(N3CCN(CCc4ccc(OCCCN5CCCCCC5)cc4)CC3)c2n1', 'Ki', 63.1);

List Ki for every entry below, keeping the order given.
1. O=C(O)CCc1ccc2cc(Cc3ccccc3)cc(N3CCN(CCc4ccc(OCCCN5CCCCCC5)cc4)CC3)c2n1
2. c1cnc2c(N3CCN(CCCCc4ccc(OCCCN5CCCCCC5)cc4)CC3)cccc2c1

1. 50.1
2. 79.4

###

Task for the reader: assign each of the following compounds its reported Kb.
molecular target: Histamine H1 receptor (Homo sapiens, UniProt P35367); experiment: Antagonist activity at human Histamine H1 receptor expressed in CHO cells assessed as inhibition of histamine-induced calcium flux at 100 nM preincubated for 30 mins followed by histamine addition by Fluo-4-AM dye based FLIPR assay; assay type: functional, cell-based; conditions: read-out: pA2 (converted)
Sequence (P35367 whole entry): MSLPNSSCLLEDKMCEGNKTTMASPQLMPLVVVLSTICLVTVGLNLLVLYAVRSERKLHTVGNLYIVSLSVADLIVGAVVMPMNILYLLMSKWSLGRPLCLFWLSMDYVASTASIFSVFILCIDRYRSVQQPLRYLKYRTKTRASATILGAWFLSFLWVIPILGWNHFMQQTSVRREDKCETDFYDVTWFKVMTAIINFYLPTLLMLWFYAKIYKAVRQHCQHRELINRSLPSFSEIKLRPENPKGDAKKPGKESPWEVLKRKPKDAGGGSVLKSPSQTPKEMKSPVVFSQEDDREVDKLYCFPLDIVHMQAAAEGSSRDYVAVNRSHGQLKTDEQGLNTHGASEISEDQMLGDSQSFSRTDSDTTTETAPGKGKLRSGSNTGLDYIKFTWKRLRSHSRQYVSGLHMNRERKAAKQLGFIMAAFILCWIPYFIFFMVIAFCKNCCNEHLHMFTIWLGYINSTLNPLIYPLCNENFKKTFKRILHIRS
Give bare numbers, in nM.

INSERT INTO measurements (mol_smiles, measurement_name, value_observed) VALUES
  ('CCCCc1cc(N2CCN(CCc3ccc(OCCCN4CCCCCC4)cc3)CC2)c2nc(CCC(=O)O)ccc2c1', 'Kb', 1.58),
  ('O=C(O)CCc1ccc2cc(Cc3ccccc3)cc(N3CCN(CCc4ccc(OCCCN5CCCCCC5)cc4)CC3)c2n1', 'Kb', 6.31),
  ('c1cnc2c(N3CCN(CCCCc4ccc(OCCCN5CCCCCC5)cc4)CC3)cccc2c1', 'Kb', 5.01),
  ('c1cnc2c(N3CCN(CCc4ccc(OCCCN5CCCCCC5)cc4)CC3)cccc2c1', 'Kb', 10);

Record CCc1cc(N2CCN(CCc3ccc(OCCCN4CCCCCC4)cc3)CC2)c2nc(CCC(=O)O)ccc2c1 : what is its Kb with Histamine H1 receptor (Homo sapiens, UniProt P35367)?
2.51

###

target: Histamine H3 receptor (Homo sapiens); assay: Antagonist activity at human Histamine H3 receptor expressed in CHO cell membranes assessed as inhibition of histamine-induced [35S]GTPgammaS binding after 2 to 6 hrs by scintillation proximity assay
What Ki was measured for each of the following?
Answers are plain numbers, in nM.

INSERT INTO measurements (mol_smiles, measurement_name, unit_of_measure, value_observed) VALUES
  ('c1cnc2c(N3CCN(CCCc4ccc(OCCCN5CCCCCC5)cc4)CC3)cccc2c1', 'Ki', 'nM', 0.398);

For each entry beneath this line, provide reported Ki.
1. CCc1cc(N2CCN(CCc3ccc(OCCCN4CCCCCC4)cc3)CC2)c2nc(CCC(=O)O)ccc2c1
2. O=C(O)c1cnc2c(N3CCN(CCc4ccc(OCCCN5CCCCCC5)cc4)CC3)cccc2c1
3. CCCCc1cc(N2CCN(CCc3ccc(OCCCN4CCCCCC4)cc3)CC2)c2nc(CCC(=O)O)ccc2c1
4. c1cnc2c(N3CCN(CCCCc4ccc(OCCCN5CCCCCC5)cc4)CC3)cccc2c1

[2, 1.58, 0.794, 0.631]

###

target: hERG (KCNH2) (Homo sapiens, UniProt Q12809); experiment: Displacement of [3H]-dofetilide from human ERG expressed in CHOK1 cell membranes incubated for 4 hrs in dark by luminescent assay; parameters: species or system CHO-K1; details: human, CHO-K1 cell membranes expressing human ERG, probe [3H]-dofetilide
Sequence (Q12809 whole entry): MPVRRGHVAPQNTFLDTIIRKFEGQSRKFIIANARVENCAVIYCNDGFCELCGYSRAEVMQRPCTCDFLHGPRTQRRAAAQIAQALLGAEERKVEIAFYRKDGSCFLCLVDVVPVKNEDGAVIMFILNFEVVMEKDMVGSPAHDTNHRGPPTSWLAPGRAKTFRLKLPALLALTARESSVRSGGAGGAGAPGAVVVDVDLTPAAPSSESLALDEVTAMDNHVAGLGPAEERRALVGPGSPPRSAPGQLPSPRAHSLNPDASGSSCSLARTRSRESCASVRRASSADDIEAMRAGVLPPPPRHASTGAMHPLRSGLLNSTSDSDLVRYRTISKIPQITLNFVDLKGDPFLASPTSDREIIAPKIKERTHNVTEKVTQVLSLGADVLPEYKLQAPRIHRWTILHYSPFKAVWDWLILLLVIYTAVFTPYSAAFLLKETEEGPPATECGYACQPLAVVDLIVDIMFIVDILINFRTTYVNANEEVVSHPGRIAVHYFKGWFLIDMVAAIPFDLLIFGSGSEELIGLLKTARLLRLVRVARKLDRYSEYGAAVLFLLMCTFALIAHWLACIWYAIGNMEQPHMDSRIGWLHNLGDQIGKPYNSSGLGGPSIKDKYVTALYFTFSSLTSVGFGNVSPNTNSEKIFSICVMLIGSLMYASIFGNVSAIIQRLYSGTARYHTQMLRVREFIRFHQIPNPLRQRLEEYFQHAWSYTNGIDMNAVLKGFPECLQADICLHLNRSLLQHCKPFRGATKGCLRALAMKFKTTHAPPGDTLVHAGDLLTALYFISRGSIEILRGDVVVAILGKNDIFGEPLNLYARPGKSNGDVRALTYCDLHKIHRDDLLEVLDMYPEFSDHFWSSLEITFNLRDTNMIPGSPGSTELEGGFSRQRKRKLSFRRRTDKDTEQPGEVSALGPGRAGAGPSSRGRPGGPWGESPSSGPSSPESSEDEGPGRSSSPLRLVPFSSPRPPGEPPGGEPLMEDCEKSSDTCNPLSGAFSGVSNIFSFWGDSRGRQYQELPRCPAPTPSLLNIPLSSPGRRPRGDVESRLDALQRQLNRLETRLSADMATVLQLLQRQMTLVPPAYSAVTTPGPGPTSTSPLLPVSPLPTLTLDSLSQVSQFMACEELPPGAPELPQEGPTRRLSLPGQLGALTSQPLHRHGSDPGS
measurement_name: IC50 at 4 h (nM)
Answers are plain numbers, in nM.

Return reported IC50 at 4 h; argument: O=c1c2ccccc2c(Cc2ccc(Cl)cc2)nn1C[C@H]1CCCN1CCCCc1ccc(OCCCN2CCCCCC2)cc1
50.1

###

target: Alpha-1B adrenergic receptor (Homo sapiens, UniProt P35368); experiment: Antagonist activity at adrenergic alpha1B receptor (unknown origin) expressed in Rat1 cells assessed as inhibition of phenylephrine-induced Ca2+ flux preincubated for 30 mins followed by phenylephrine addition by Fluo-4-AM-dye based FLIPR assay
measurement_name: Ki (nM)
Give bare numbers, in nM.

INSERT INTO results (mol_smiles, measurement_name, value_observed) VALUES
  ('O=C(O)CCc1ccc2cccc(N3CCN(CCc4ccc(OCCCN5CCCCCC5)cc4)CC3)c2n1', 'Ki', 200);

Data request, read-out Ki, for c1cnc2c(N3CCN(CCCCc4ccc(OCCCN5CCCCCC5)cc4)CC3)cccc2c1
50.1

###

Answer each item with its documented Ki.
target: Histamine H3 receptor (Homo sapiens, UniProt Q9Y5N1); assay: Antagonist activity at human Histamine H3 receptor expressed in CHO cell membranes assessed as inhibition of histamine-induced [35S]GTPgammaS binding after 2 to 6 hrs by scintillation proximity assay
Sequence (Q9Y5N1 whole entry): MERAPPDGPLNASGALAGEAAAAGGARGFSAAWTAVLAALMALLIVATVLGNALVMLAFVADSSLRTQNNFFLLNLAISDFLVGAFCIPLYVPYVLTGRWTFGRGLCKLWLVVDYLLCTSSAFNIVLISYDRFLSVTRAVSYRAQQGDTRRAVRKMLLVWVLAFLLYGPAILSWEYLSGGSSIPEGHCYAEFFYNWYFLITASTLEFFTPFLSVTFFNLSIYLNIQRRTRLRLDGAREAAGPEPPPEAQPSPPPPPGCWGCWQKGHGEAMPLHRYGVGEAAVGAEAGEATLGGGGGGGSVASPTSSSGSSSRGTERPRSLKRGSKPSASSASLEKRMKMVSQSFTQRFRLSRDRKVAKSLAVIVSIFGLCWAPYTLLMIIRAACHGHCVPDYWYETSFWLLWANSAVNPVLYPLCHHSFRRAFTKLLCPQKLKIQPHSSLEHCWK
Form field: result (number plus unit)

Look up Ki for the entries below, preserving their order.
1. O=C(O)CCc1cnc2c(N3CCN(CCc4ccc(OCCCN5CCCCCC5)cc4)CC3)cccc2c1
2. c1cnc2c(N3CCN(CCc4ccc(OCCCN5CCCCCC5)cc4)CC3)cccc2c1
3. O=C(O)CCc1ccc2cc(Cc3ccccc3)cc(N3CCN(CCc4ccc(OCCCN5CCCCCC5)cc4)CC3)c2n1
4. O=C(O)c1ccnc2c(N3CCN(CCc4ccc(OCCCN5CCCCCC5)cc4)CC3)cccc12

1: 1.26 nM; 2: 0.501 nM; 3: 0.316 nM; 4: 1.58 nM
